# TEST SYSTEM: wt IDH1 (Homo sapiens, UniProt O75874)
# Construct: made in house; host or cells: Escherichia coli BL21(DE3) pLyS
# Sequence (O75874 whole entry): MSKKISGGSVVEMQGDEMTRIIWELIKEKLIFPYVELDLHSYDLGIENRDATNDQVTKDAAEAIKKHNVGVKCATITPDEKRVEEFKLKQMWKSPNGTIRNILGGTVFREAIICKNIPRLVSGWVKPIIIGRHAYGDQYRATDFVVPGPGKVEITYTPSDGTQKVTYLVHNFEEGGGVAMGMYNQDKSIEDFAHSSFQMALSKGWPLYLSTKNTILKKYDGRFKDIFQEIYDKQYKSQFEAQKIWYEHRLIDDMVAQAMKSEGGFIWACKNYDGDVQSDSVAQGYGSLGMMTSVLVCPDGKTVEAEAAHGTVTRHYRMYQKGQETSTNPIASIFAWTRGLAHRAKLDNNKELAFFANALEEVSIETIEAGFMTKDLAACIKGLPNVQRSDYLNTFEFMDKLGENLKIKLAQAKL
# ASSAY PROCEDURE: Non-denaturing MS binding, wt IDH1
# CONDITION DESCRIPTION: IDH 50 μM, 200 mM ammonium acetate pH 7.5
PARAMETER MEASURED: Kd (µM)
Provide only the numeric value, understood in µM.

Record Cc1ccccc1C(C(=O)NC1CCCCC1)N(C(=O)Cn1ccnc1C)c1cccc(F)c1 (stereo not shown) ; system wt IDH1 (Homo sapiens, UniProt O75874); Kd = 608

* * *

# TEST SYSTEM: IDH1 R132H (Homo sapiens, UniProt O75874, R132H)
# Construct: made in house; host or cells: Escherichia coli BL21(DE3) pLyS
# Sequence (O75874 whole entry R132H): as the sequence (O75874 whole entry) above, with R132H counted along it
# ASSAY PROCEDURE: Differential scanning fluorimetry (DSF) thermal shift, IDH1 R132H
# Format: binding
# CONDITION DESCRIPTION: largest change in Tm of IDH1 ([…]) with 3-100 μM inhibitor
Examples of molecules with documented Δ Tm/°C by DSF IDH1 R132H follow.
Provide only the numeric value, understood in °C.

Entry N#Cc1ccnc(N2C(=O)CC[C@H]2C(=O)N(c2cncc(F)c2)[C@H](C(=O)NC2CC(F)(F)C2)c2ccccc2Cl)c1 [Ivosidenib] — recorded Δ Tm/°C by DSF IDH1 R132H = 8.5

Entry Cc1ccccc1C(C(=O)NC1CCCCC1)N(C(=O)Cn1ccnc1C)c1cccc(F)c1 (stereo not drawn) [AGI-5198] — recorded Δ Tm/°C by DSF IDH1 R132H = 6.0

Turning now to a further molecule:
Entry Cc1ccccc1C(C(=O)NC1CCCCC1)N(C(=O)Cn1cnc2ccccc21)c1cccc(F)c1 (stereo not drawn) [Agios135] — recorded Δ Tm/°C by DSF IDH1 R132H = 6.2

* * *

Examples of molecules with documented ΔTm at 42 µM follow.
# TEST SYSTEM: IDH1 R132H (Homo sapiens, UniProt O75874, R132H)
# Construct: made in house; host or cells: Escherichia coli BL21(DE3) pLyS
# ASSAY PROCEDURE: Circular dichroism (CD) melting temperature, IDH1 R132H
# Assay type: binding
# CONDITION DESCRIPTION: inhibitor 42 μM, IDH 4.2 μM (0.2 mg/mL); read-out: Δ Tm/°C by CD IDH1 R132H
Provide only the numeric value, understood in °C.

Example cases with answers are listed next.
Entry N#Cc1ccnc(N2C(=O)CC[C@H]2C(=O)N(c2cncc(F)c2)[C@H](C(=O)NC2CC(F)(F)C2)c2ccccc2Cl)c1 [Ivosidenib] — recorded ΔTm at 42 µM = 11.2

Entry C[C@@H](Nc1nc(N[C@H](C)C(F)(F)F)nc(-c2cccc(Cl)n2)n1)C(F)(F)F [Vorasidenib] — recorded ΔTm at 42 µM = 4.1

Entry Cc1ccccc1C(C(=O)NC1CCCCC1)N(C(=O)Cn1ccnc1C)c1cccc(F)c1 (stereo not drawn) [AGI-5198] — recorded ΔTm at 42 µM = 7.7

Entry CC(C)(O)CNc1nc(Nc2ccnc(C(F)(F)F)c2)nc(-c2cccc(C(F)(F)F)n2)n1 [Enasidenib] — recorded ΔTm at 42 µM = 1.9

Entry CC(C)(C)CC(C)(C)c1cc(Cn2ccnc2)c(O)c(Cn2ccnc2)c1 [Sanofi 1] — recorded ΔTm at 42 µM = 5.9

Turning now to a further molecule:
Entry COc1c(C)cc(NC(=O)c2nn(Cc3ccc(F)cc3)c3c2CN(C(=O)c2ccc[nH]2)C[C@]3(C)C(N)=O)cc1C [GSK864] — recorded ΔTm at 42 µM = 8.7
